Where do these numbers come from? They come from patent US8106055B2.

molecular target: serotonin (5-HT) reuptake (Rattus norvegicus); construct: synaptosomes are freshly isolated from areas of the rat brain; from tissue; host or cells: rat brain synaptosomes (P2 fraction); experiment: Inhibition of serotonin (5HT) reuptake in synaptosomes from rat brain; format: biochemical; conditions: test concentration of 10 μM
Sequence (P31652 whole entry): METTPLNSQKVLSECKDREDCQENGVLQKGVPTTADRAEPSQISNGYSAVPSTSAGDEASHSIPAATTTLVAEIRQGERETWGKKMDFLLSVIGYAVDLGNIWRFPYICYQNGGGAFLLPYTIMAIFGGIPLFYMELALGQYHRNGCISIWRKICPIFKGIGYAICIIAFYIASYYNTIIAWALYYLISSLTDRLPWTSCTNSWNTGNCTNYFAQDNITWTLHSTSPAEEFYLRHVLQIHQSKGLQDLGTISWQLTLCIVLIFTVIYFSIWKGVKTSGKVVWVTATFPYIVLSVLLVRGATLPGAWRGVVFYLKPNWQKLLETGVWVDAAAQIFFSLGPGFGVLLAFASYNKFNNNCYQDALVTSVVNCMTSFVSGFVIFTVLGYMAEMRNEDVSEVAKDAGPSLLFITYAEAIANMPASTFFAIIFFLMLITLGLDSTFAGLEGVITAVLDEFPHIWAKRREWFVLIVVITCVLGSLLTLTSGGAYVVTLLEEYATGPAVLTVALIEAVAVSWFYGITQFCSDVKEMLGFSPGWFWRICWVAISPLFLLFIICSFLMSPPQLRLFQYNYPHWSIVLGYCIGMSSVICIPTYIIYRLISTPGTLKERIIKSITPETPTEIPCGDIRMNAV
METRIC_NAME: 5-HT (inhibition of reuptake of serotonin, % inhibition) (%)
Response body: numeric value in %, unit text excluded.

Before answering, review these 3 worked examples.
CCN(CCOCC(=O)NC1CCC(C(c2ccc(F)cc2)N(C)C)CC1)S(=O)(=O)c1c(C)cc(OC)c(C)c1C (stereo not drawn)
90
COc1ccc(S(=O)(=O)N2CCC(OCC(=O)NCCC3CCC(C(c4ccc(F)cc4)N(C)C)CC3)C2)cc1OC (stereo not drawn)
92
CN(C)C(c1cccc(F)c1)C1CCC(NC(=O)COCCN(C)S(=O)(=O)c2ccc(OC(F)(F)F)cc2)CC1 (stereo not drawn)
91

Prompt: Give me measured 5-HT (inhibition of reuptake of serotonin, % inhibition), please, for this molecule: COc1ccc(S(=O)(=O)N2CCCCC2COCC(=O)NCCC2CCC(C(c3ccc(Cl)cc3)N(C)C)CC2)cc1 (stereo not drawn)
Response: 95

Prompt: Give me measured 5-HT (inhibition of reuptake of serotonin, % inhibition), please, for this molecule: CN(C)C(c1ccc(F)cc1)C1CCC(NC(=O)COC2CCN(S(=O)(=O)c3ccccc3)C2)CC1 (stereo not drawn)
Response: 97

Prompt: Give me measured 5-HT (inhibition of reuptake of serotonin, % inhibition), please, for this molecule: CN(C)C(c1ccc(Cl)cc1)C1CCC(CCNC(=O)COC2CCCN(S(=O)(=O)c3ccccc3)C2)CC1 (stereo not drawn)
Response: 96

Prompt: Give me measured 5-HT (inhibition of reuptake of serotonin, % inhibition), please, for this molecule: CN(C)C(c1cccc(F)c1)C1CCC(NC(=O)COCC2CCCN(S(=O)(=O)c3ccccc3)C2)CC1 (stereo not drawn)
Response: 97

Prompt: Give me measured 5-HT (inhibition of reuptake of serotonin, % inhibition), please, for this molecule: COc1cc(C)c(S(=O)(=O)N2CCC(OCC(=O)NCC3CCC(C(c4ccc(F)cc4)N(C)C)CC3)C2)c(C)c1C (stereo not drawn)
Response: 94

Prompt: Give me measured 5-HT (inhibition of reuptake of serotonin, % inhibition), please, for this molecule: Cc1cc(C)c(S(=O)(=O)N(C)CCOCC(=O)NCCC2CCC(C(c3ccc(Cl)cc3)N(C)C)CC2)c(C)c1 (stereo not drawn)
Response: 103

Prompt: Give me measured 5-HT (inhibition of reuptake of serotonin, % inhibition), please, for this molecule: COc1cc(C)c(S(=O)(=O)N(C)CCOCC(=O)NC2CCC(C(c3ccccc3)N(C)C)CC2)c(C)c1 (stereo not drawn)
Response: 78

Prompt: Give me measured 5-HT (inhibition of reuptake of serotonin, % inhibition), please, for this molecule: COc1ccc(S(=O)(=O)N(C)CCOCC(=O)NCCC2CCC(C(c3ccc(Cl)cc3)N(C)C)CC2)cc1 (stereo not drawn)
Response: 86

Prompt: Give me measured 5-HT (inhibition of reuptake of serotonin, % inhibition), please, for this molecule: COc1cc(C)c(S(=O)(=O)N(C)CCOCC(=O)NC2CCC(C(c3ccc(F)cc3)N(C)C)CC2)c(C)c1 (stereo not drawn)
Response: 81
